- Tested on: thrombocyte depleted plasm coagulation
- assay_info: Activated partial thromboplastin time (APTT), anticoagulant properties
- Assay type: biochemical, human
- measurement_conditions: 2.5 mmol/L; thrombocyte depleted plasm
So I've got a bunch of compounds here, and I need their APTT values.
Give bare numbers, in s.

[[record]]
compound = "COc1ccc(CN2CCN(C(=N)N)CC2)c(OC)c1OC.O=C(O)/C=C/C(=O)O [Example 8]"
test_result = 71.3

[[record]]
compound = "COc1cc(C(=O)N2CCN(C(=N)N)CC2)cc(OC)c1OC.O=C(O)/C=C/C(=O)O [Example 1]"
test_result = 63.3

[[record]]
compound = "COc1cc(CN2CCN(C(=N)N)CC2)ccc1OCC(C)C.Cl [Example 12]"
test_result = 63.2


Alright, here's another compound for you.
INPUT: Record request: APTT value, item O=C(O)/C=C/c1ccc(Cn2ccnc2)cc1 [Ozagrel, reference compound]
OUTPUT: 51.8

====

- Tested on: thrombocyte depleted plasm coagulation
- assay_info: Activated partial thromboplastin time (APTT), anticoagulant properties
- Assay type: biochemical, human
- measurement_conditions: 1.7 mmol/L; thrombocyte depleted plasm
measurement_kind: APTT (s)
Numbers only, in s.

[[record]]
smiles_string = "COc1cc(CN2CCN(C(=N)N)CC2)ccc1OCC(C)C.Cl"
measurement_kind = "APTT"
test_result = 50.1

[[record]]
smiles_string = "COc1ccc(CN2CCN(C(=N)N)CC2)c(OC)c1OC.O=C(O)/C=C/C(=O)O"
measurement_kind = "APTT"
test_result = 61.1

[[record]]
smiles_string = "COc1cc(C(=O)N2CCN(C(=N)N)CC2)cc(OC)c1OC.O=C(O)/C=C/C(=O)O"
measurement_kind = "APTT"
test_result = 50.4


INPUT: Name the recorded APTT for CCOc1ccc(CN2CCN(C(=N)N)CC2)c(OCC)c1OCC.Cl .
OUTPUT: 53.7
